Would you kindly list pKi for each of these compounds?
Target: Adenosine receptor A3 (Homo sapiens, UniProt P0DMS8)
Sequence (P0DMS8 whole entry): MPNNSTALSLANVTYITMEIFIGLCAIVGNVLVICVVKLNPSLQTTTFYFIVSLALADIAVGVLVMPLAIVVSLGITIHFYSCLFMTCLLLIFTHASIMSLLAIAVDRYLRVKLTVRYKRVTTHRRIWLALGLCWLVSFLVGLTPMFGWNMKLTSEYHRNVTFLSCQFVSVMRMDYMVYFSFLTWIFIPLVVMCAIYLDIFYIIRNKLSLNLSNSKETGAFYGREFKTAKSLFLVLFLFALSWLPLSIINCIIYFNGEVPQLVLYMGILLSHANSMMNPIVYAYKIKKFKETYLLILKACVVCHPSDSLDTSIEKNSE
Assay: Binding affinity against Human recombinant Adenosine A3 receptor stably transfected in CHO cells using [3H]NECA as radioligand
Give bare numbers, as −log10 of the molar value.

Below: 7 compounds and their reported pKi.
COMPOUND	pKi
CNc1nc(C#C[C@@H](O)c2ccccc2)nc2c1ncn2[C@@H]1O[C@H](CO)[C@@H](O)[C@H]1O	9.28
CCNC(=O)[C@H]1O[C@@H](n2cnc3c(N)nc(C#Cc4ccccc4)nc32)[C@H](O)[C@@H]1O	8.21
CCNC(=O)[C@H]1O[C@@H](n2cnc3c(N)nc(C#C[C@@H](O)c4ccccc4)nc32)[C@H](O)[C@@H]1O	9.12
CNc1nc(C#Cc2ccccc2)nc2c1ncn2[C@@H]1O[C@H](CO)[C@@H](O)[C@H]1O	8.47
CCCCC#Cc1nc(NC(C)C)c2ncn([C@@H]3O[C@H](CO)[C@@H](O)[C@H]3O)c2n1	8.01
CC(C)Nc1nc(C#C[C@H](O)c2ccccc2)nc2c1ncn2[C@@H]1O[C@H](CO)[C@@H](O)[C@H]1O	8.31
CCNC(=O)[C@H]1O[C@@H](n2cnc3c(N)nc(C#C[C@H](O)c4ccccc4)nc32)[C@H](O)[C@@H]1O	8.26

Now look at this one.
For the compound CCNc1nc(C#Cc2ccccc2)nc2c1ncn2C1O[C@H](CO)[C@@H](O)[C@H]1O (stereo partly drawn) , what pKi is on record?
8.31

----------
Target: Adenosine receptor A1 (Homo sapiens, UniProt P30542)
Sequence (P30542 whole entry): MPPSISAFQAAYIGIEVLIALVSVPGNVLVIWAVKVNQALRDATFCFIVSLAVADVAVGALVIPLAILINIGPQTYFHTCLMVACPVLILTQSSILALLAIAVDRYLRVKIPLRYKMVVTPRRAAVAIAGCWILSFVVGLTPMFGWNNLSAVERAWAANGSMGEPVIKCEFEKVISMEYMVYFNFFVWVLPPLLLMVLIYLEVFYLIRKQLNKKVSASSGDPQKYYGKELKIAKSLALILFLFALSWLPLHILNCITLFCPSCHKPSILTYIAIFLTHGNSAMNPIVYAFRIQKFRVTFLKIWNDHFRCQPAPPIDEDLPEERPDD
Assay: Binding affinity against Human recombinant Adenosine A1 receptor stably transfected in CHO cells using [3H]CCPA as radioligand
Checkbox rule: Ki lower than 7 nM = condition met; Ki not lower than 7 nM = condition not met.

Reference set (2 entries):
COMPOUND	GROUP_LABEL
Nc1nc(C#Cc2ccccc2)nc2c1ncn2[C@@H]1O[C@H](CO)[C@@H](O)[C@H]1O	condition not met
Nc1nc(C#CC(O)c2ccccc2)nc2c1ncn2[C@@H]1O[C@H](CO)[C@@H](O)[C@H]1O (stereo partly drawn)	condition met

State whether 7 nM exceeds Ki recorded for CC(C)Nc1nc(C#C[C@@H](O)c2ccccc2)nc2c1ncn2[C@@H]1O[C@H](CO)[C@@H](O)[C@H]1O .
condition met

State whether 7 nM exceeds Ki recorded for CNc1nc(C#C[C@@H](O)c2ccccc2)nc2c1ncn2[C@@H]1O[C@H](CO)[C@@H](O)[C@H]1O .
condition not met

State whether 7 nM exceeds Ki recorded for CCNC(=O)[C@H]1O[C@@H](n2cnc3c(N)nc(C#Cc4ccccc4)nc32)[C@H](O)[C@@H]1O .
condition not met

State whether 7 nM exceeds Ki recorded for CCNc1nc(C#C[C@H](O)c2ccccc2)nc2c1ncn2[C@@H]1O[C@H](CO)[C@@H](O)[C@H]1O .
condition met

State whether 7 nM exceeds Ki recorded for CNc1nc(C#CC(O)c2ccccc2)nc2c1ncn2[C@@H]1O[C@H](CO)[C@@H](O)[C@H]1O (stereo partly drawn) .
condition not met

----------
Would you kindly list EC50 for each of these molecules?
molecular target: Adenosine receptor A2b (Homo sapiens, UniProt P29275); assay: Receptor-stimulated activity in CHO cells stably transfected with Human recombinant Adenosine A2B receptor measuring adenylyl cyclase activity
Sequence (P29275 whole entry): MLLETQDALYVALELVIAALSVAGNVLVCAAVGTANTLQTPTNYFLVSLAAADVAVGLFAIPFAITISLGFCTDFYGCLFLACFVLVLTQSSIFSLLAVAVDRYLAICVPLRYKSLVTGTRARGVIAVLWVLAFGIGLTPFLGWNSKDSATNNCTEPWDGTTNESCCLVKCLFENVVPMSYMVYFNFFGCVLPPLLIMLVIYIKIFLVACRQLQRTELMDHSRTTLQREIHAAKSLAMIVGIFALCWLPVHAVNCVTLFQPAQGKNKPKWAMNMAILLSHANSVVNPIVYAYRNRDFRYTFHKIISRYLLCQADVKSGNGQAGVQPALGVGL

MOLECULE	EC50
CCNc1nc(C#C[C@@H](O)c2ccccc2)nc2c1ncn2[C@@H]1O[C@H](CO)[C@@H](O)[C@H]1O	0.73 µM
CCNC(=O)[C@H]1O[C@@H](n2cnc3c(N)nc(C#Cc4ccccc4)nc32)[C@H](O)[C@@H]1O	> 100 µM
CCNc1nc(C#CC(O)c2ccccc2)nc2c1ncn2[C@@H]1O[C@H](CO)[C@@H](O)[C@H]1O (stereo partly drawn)	1.7 µM
CCCCC#Cc1nc(N)c2ncn([C@@H]3O[C@H](CO)[C@@H](O)[C@H]3O)c2n1	100 µM
CCNc1nc(C#C[C@H](O)c2ccccc2)nc2c1ncn2[C@@H]1O[C@H](CO)[C@@H](O)[C@H]1O	9.1 µM
CC(C)Nc1nc(C#CC(O)c2ccccc2)nc2c1ncn2[C@@H]1O[C@H](CO)[C@@H](O)[C@H]1O (stereo partly drawn)	6.1 µM
Nc1nc(C#C[C@@H](O)c2ccccc2)nc2c1ncn2[C@@H]1O[C@H](CO)[C@@H](O)[C@H]1O	0.92 µM

Now look at this one.
For the molecule CCCCC#Cc1nc(NC)c2ncn([C@@H]3O[C@H](CO)[C@@H](O)[C@H]3O)c2n1 , what EC50 is on record?
100 µM

----------
Would you kindly list Ki for each of these molecules?
molecular target: Adenosine receptor A3 (Homo sapiens); assay: Binding affinity against Human recombinant Adenosine A3 receptor stably transfected in CHO cells using [3H]NECA as radioligand
Give bare numbers, in nM.

Below: 4 molecules and their reported Ki.
MOLECULE	TARGET_ENTITY	ASSAY_READOUT	MEASURED_RESULT
Nc1nc(C#C[C@H](O)c2ccccc2)nc2c1ncn2[C@@H]1O[C@H](CO)[C@@H](O)[C@H]1O	Adenosine receptor A3 (Homo sapiens)	Ki	5
CCNc1nc(C#C[C@H](O)c2ccccc2)nc2c1ncn2[C@@H]1O[C@H](CO)[C@@H](O)[C@H]1O	Adenosine receptor A3 (Homo sapiens)	Ki	1.4
CCNc1nc(C#C[C@@H](O)c2ccccc2)nc2c1ncn2[C@@H]1O[C@H](CO)[C@@H](O)[C@H]1O	Adenosine receptor A3 (Homo sapiens)	Ki	0.2
CNc1nc(C#C[C@H](O)c2ccccc2)nc2c1ncn2[C@@H]1O[C@H](CO)[C@@H](O)[C@H]1O	Adenosine receptor A3 (Homo sapiens)	Ki	1.2

Now look at this one.
For the molecule CC(C)Nc1nc(C#CC(O)c2ccccc2)nc2c1ncn2[C@@H]1O[C@H](CO)[C@@H](O)[C@H]1O (stereo not given in full) , what Ki is on record?
2.3

----------
Would you kindly list pKi for each of these compounds?
target: Adenosine receptor A3 (Homo sapiens); test: Binding affinity against Human recombinant Adenosine A3 receptor stably transfected in CHO cells using [3H]NECA as radioligand; assay type: cell-based
Numbers only, as −log10 of the molar value.

COMPOUND	MEASURED_RESULT
CNc1nc(C#CC(O)c2ccccc2)nc2c1ncn2[C@@H]1O[C@H](CO)[C@@H](O)[C@H]1O (some centres undefined)	9.12
CC(C)Nc1nc(C#Cc2ccccc2)nc2c1ncn2[C@@H]1O[C@H](CO)[C@@H](O)[C@H]1O	7.77
CC(C)Nc1nc(C#C[C@@H](O)c2ccccc2)nc2c1ncn2[C@@H]1O[C@H](CO)[C@@H](O)[C@H]1O	8.82

Now look at this one.
For the compound Nc1nc(C#C[C@@H](O)c2ccccc2)nc2c1ncn2[C@@H]1O[C@H](CO)[C@@H](O)[C@H]1O , what pKi is on record?
8.85

----------
biological target: Adenosine receptor A2a (Homo sapiens, UniProt P29274); experiment: Binding affinity against Human recombinant Adenosine A2A receptor stably transfected in CHO cells using [3H]NECA as radioligand
Sequence (P29274 whole entry): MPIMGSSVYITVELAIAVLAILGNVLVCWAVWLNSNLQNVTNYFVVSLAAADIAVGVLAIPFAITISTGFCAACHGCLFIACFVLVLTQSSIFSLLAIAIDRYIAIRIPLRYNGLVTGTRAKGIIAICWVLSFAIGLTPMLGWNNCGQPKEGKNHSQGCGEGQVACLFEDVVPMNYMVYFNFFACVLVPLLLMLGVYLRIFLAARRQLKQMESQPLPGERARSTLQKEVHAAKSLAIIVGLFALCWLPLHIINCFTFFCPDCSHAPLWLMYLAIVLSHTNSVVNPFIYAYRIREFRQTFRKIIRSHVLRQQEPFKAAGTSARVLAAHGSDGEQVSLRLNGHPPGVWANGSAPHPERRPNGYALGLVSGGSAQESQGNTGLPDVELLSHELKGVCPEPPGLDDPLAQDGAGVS
ASSAY_READOUT: pKi
Give bare numbers, as −log10 of the molar value.

COMPOUND	pKi
Nc1nc(C#C[C@@H](O)c2ccccc2)nc2c1ncn2[C@@H]1O[C@H](CO)[C@@H](O)[C@H]1O	8.74
Nc1nc(C#Cc2ccccc2)nc2c1ncn2[C@@H]1O[C@H](CO)[C@@H](O)[C@H]1O	6.44
CNc1nc(C#C[C@H](O)c2ccccc2)nc2c1ncn2[C@@H]1O[C@H](CO)[C@@H](O)[C@H]1O	5.81
CNc1nc(C#CC(O)c2ccccc2)nc2c1ncn2[C@@H]1O[C@H](CO)[C@@H](O)[C@H]1O (stereo partly specified)	6.56
Nc1nc(C#CC(O)c2ccccc2)nc2c1ncn2[C@@H]1O[C@H](CO)[C@@H](O)[C@H]1O (stereo partly specified)	8.15

Your task in this section: give pKi for each listed record.
1. CCCCC#Cc1nc(NCC)c2ncn([C@@H]3O[C@H](CO)[C@@H](O)[C@H]3O)c2n1
2. CCNC(=O)[C@H]1O[C@@H](n2cnc3c(N)nc(C#CC(O)c4ccccc4)nc32)[C@H](O)[C@@H]1O (mixture of isomers)
3. CCNc1nc(C#C[C@H](O)c2ccccc2)nc2c1ncn2[C@@H]1O[C@H](CO)[C@@H](O)[C@H]1O

6.57
8.51
5.93

Your task in this section: give pKi for each listed record.
1. CC(C)Nc1nc(C#C[C@@H](O)c2ccccc2)nc2c1ncn2[C@@H]1O[C@H](CO)[C@@H](O)[C@H]1O
2. CC(C)Nc1nc(C#CC(O)c2ccccc2)nc2c1ncn2[C@@H]1O[C@H](CO)[C@@H](O)[C@H]1O (stereo partly specified)
3. CNc1nc(C#C[C@@H](O)c2ccccc2)nc2c1ncn2[C@@H]1O[C@H](CO)[C@@H](O)[C@H]1O

7.37
7.02
6.79
